Data provenance: patent US20110288086A1

Tested on: K562 human chronicity marrow leukemic cells
assay: Tumor cell inhibition ratio, CCK-8 kit, K562
experimental conditions: K562, read-out: Antiproliferative effect (inhibition ratio) K562
Structures can show the parent of a compound that is named as a salt.
Below, each entry is listed alongside its reported inhibition at 100 µM.
Field: numeric (%). Do not append units.

Examples with their reported inhibition at 100 µM follow.
> print(dat)
                                   molecule         assay.readout  units.text  numeric.value
1  COCCOc1cc2c(cc1OCCOC)C1=Nc3cc(O)ccc3CN1C=N2  inhibition at 100 µM           %             59
2  COc1cc2c(cc1OCCCN1CCOCC1)C1=Nc3ccc(F)c(Cl)c3CN1C=N2 [Compound V-23, di-p-toluenesulfonate]  inhibition at 100 µM           %           73.4
3  COCCOc1cc2c(cc1OCCOC)C1=Nc3cccc(NC(C)=O)c3CN1C=N2  inhibition at 100 µM           %             86
4  COCCOc1cc2c(cc1OCCOC)C1=Nc3cccc(F)c3CN1C=N2 [Compound V-3, mesylate]  inhibition at 100 µM           %           88.8
5  COCCOc1cc2c(cc1OCCOC)C1=Nc3cc(COS(C)(=O)=O)cc([N+](=O)[O-])c3CN1C=N2.Cl [Compound V-20, hydrochloride]  inhibition at 100 µM           %           97.4

Per the record, `COCCOc1cc2c(cc1OCCOC)C1=Nc3cccc([N+](=O)[O-])c3CN1C=N2` has inhibition at 100 µM of 78.3

Per the record, `COCCOc1cc2c(cc1OCCOC)C1=Nc3ccc(OCc4cccc(F)c4)c(Cl)c3CN1C=N2` has inhibition at 100 µM of 100

Per the record, C#Cc1cccc2c1CN1C=Nc3cc(OCCOC)c(OCCOC)cc3C1=N2.Cl [Compound V-4, hydrochloride trihydrate] has inhibition at 100 µM of 87.6
